- assay: The drug is tested on Z-003 corresponding to pig gut metagenome with ENA study accession number: PRJEB37062 and ENA sample accession number: ERS12561803 for biotransformation under anaerobic condition. The drug concentrations were measured over 9 timepoints collected between 0 and 24 hours of incubation by liquid-chromatography-coupled mass spectrometry (LC–MS); also: call rule not given here
- condition_info: 2 µM
outcome_measure: Bacterial Biotransformation

INSERT INTO assay_data (compound, result) VALUES
  ('COc1ccc(CN2CCNCC2)c(OC)c1OC.Cl.Cl [TRIMETAZIDINE DIHYDROCHLORIDE]', 'Compound NOT metabolized'),
  ('CN1CCCCC1CCN1c2ccccc2Sc2ccc([S+](C)[O-])cc21.O=S(=O)(O)c1ccccc1 (centres undefined) [MESORIDAZINE BESYLATE]', 'Compound metabolized'),
  ('Br.CN1CCC[C@@H]1Cc1c[nH]c2ccc(CCS(=O)(=O)c3ccccc3)cc12 [ELETRIPTAN HYDROBROMIDE]', 'Compound NOT metabolized'),
  ('CN1CCN2c3ccccc3Cc3ccccc3C2C1 (centres undefined)', 'Compound metabolized');

* * *

- condition_info: human gut metagenome, 24 h, 2 µM
outcome_measure: Bacterial Biotransformation

INSERT INTO measurements (compound, outcome_measure, result) VALUES
  ('CN(CCOc1ccc(CC2SC(=O)NC2=O)cc1)c1ccccn1.O=C(O)/C=C\C(=O)O (stereo not drawn) [ROSIGLITAZONE MALEATE]', 'Bacterial Biotransformation', 'Compound NOT metabolized'),
  ('COc1ccccc1OCCNCC(O)COc1cccc2[nH]c3ccccc3c12 (stereo not drawn)', 'Bacterial Biotransformation', 'Compound NOT metabolized'),
  ('C[N+]12CCC(CC1)C(OC(=O)C(O)(c1ccccc1)c1ccccc1)C2.[Br-] (stereo not drawn) [CLIDINIUM BROMIDE]', 'Bacterial Biotransformation', 'Compound NOT metabolized'),
  ('CC(C)(C)NC[C@H](O)COc1nsnc1N1CCOCC1.O=C(O)/C=C\C(=O)O [TIMOLOL MALEATE]', 'Bacterial Biotransformation', 'Compound NOT metabolized'),
  ('O=P1(N(CCCl)CCCl)NCCCO1 (stereo not drawn) [CYCLOPHOSPHAMIDE ANHYDROUS]', 'Bacterial Biotransformation', 'Compound NOT metabolized');

Proceeding to the next compound to report its Bacterial Biotransformation.
Looking up CCN(CC)CCNC(=O)c1ccc(NC(C)=O)cc1 [ACECAINIDE] , I found its Bacterial Biotransformation recorded as Compound NOT metabolized

* * *

- assay: The drug is tested on Z-020 corresponding to rabbit gut metagenome with ENA study accession number: PRJEB37062 and ENA sample accession number: ERS12561819 for biotransformation under anaerobic condition. The drug concentrations were measured over 9 timepoints collected between 0 and 24 hours of incubation by liquid-chromatography-coupled mass spectrometry (LC–MS)
- condition_info: 2 µM
outcome_measure: Bacterial Biotransformation

// known answers, use as guide
INSERT INTO assay_data (compound, outcome_measure, result) VALUES
  ('CC(=O)OCC(=O)[C@@]1(OC(C)=O)[C@@H](C)C[C@H]2[C@@H]3C[C@H](F)C4=CC(=O)C=C[C@]4(C)[C@@]3(F)[C@@H](O)C[C@@]21C [DIFLORASONE DIACETATE]', 'Bacterial Biotransformation', 'Compound metabolized'),
  ('CN(C)CCOC(C)(c1ccccc1)c1ccccn1.O=C(O)CCC(=O)O (stereo not drawn) [DOXYLAMINE SUCCINATE]', 'Bacterial Biotransformation', 'Compound NOT metabolized'),
  ('CN1C[C@H](C(=O)N[C@]2(C)O[C@@]3(O)[C@@H]4CCCN4C(=O)[C@H](Cc4ccccc4)N3C2=O)C[C@@H]2c3cccc4[nH]cc(c34)C[C@H]21.CS(=O)(=O)O [DIHYDROERGOTAMINE MESYLATE]', 'Bacterial Biotransformation', 'Compound NOT metabolized'),
  ('OC(c1cc(C(F)(F)F)nc2c(C(F)(F)F)cccc12)C1CCCCN1 (stereo not drawn)', 'Bacterial Biotransformation', 'Compound metabolized');

Looking up CC(=O)SCC(Cc1ccccc1)C(=O)NCC(=O)OCc1ccccc1 (stereo not drawn) , I found its Bacterial Biotransformation recorded as Compound metabolized

Looking up COc1ccc(CN2CCNCC2)c(OC)c1OC.Cl.Cl [TRIMETAZIDINE DIHYDROCHLORIDE] , I found its Bacterial Biotransformation recorded as Compound NOT metabolized

Looking up COc1ccc(Cc2nccc3cc(OC)c(OC)cc23)cc1OC , I found its Bacterial Biotransformation recorded as Compound NOT metabolized

Looking up CC12CC3CC(C)(C1)CC(N)(C3)C2 [MEMANTINE] , I found its Bacterial Biotransformation recorded as Compound NOT metabolized

* * *

- assay: The drug is tested on Z-004 corresponding to metagenome with ENA study accession number: PRJEB37062 and ENA sample accession number: ERS12561804 for biotransformation under anaerobic condition. The drug concentrations were measured over 9 timepoints collected between 0 and 24 hours of incubation by liquid-chromatography-coupled mass spectrometry (LC–MS)
- condition_info: 2 µM
outcome_measure: Bacterial Biotransformation

// known answers, use as guide
INSERT INTO assay_data (compound, outcome_measure, result) VALUES
  ('COc1ccccc1OCCNCC(O)COc1cccc2[nH]c3ccccc3c12 (configuration not stated) [CARVEDILOL]', 'Bacterial Biotransformation', 'Compound NOT metabolized'),
  ('O=C1CC2(CCCC2)CC(=O)N1CCCCN1CCN(c2ncccn2)CC1 [BUSPIRONE]', 'Bacterial Biotransformation', 'Compound NOT metabolized'),
  ('CCS(=O)(=O)CCn1c([N+](=O)[O-])cnc1C [TINIDAZOLE]', 'Bacterial Biotransformation', 'Compound metabolized'),
  ('O=P1(N(CCCl)CCCl)NCCCO1 (configuration not stated) [CYCLOPHOSPHAMIDE ANHYDROUS]', 'Bacterial Biotransformation', 'Compound metabolized'),
  ('CN1C[C@H](C(=O)N[C@]2(C)O[C@@]3(O)[C@@H]4CCCN4C(=O)[C@H](Cc4ccccc4)N3C2=O)C[C@@H]2c3cccc4[nH]cc(c34)C[C@H]21.CS(=O)(=O)O [DIHYDROERGOTAMINE MESYLATE]', 'Bacterial Biotransformation', 'Compound NOT metabolized'),
  ('CN1CCC[C@@H]1CCO[C@](C)(c1ccccc1)c1ccc(Cl)cc1.O=C(O)/C=C/C(=O)O [CLEMASTINE FUMARATE]', 'Bacterial Biotransformation', 'Compound NOT metabolized');

Looking up Cc1cc2c(s1)Nc1ccccc1N=C2N1CCN(C)CC1 [OLANZAPINE] , I found its Bacterial Biotransformation recorded as Compound metabolized

* * *

- assay: The drug is tested on Z-022 corresponding to mouse gut metagenome with ENA study accession number: PRJEB37062 and ENA sample accession number: ERS12561821 for biotransformation under anaerobic condition. The drug concentrations were measured over 9 timepoints collected between 0 and 24 hours of incubation by liquid-chromatography-coupled mass spectrometry (LC–MS)
- condition_info: 2 µM
outcome_measure: Bacterial Biotransformation

// known answers, use as guide
INSERT INTO assay_data (compound, outcome_measure, result) VALUES
  ('COc1cc(NC(C)CCCN)c2ncccc2c1.O=P(O)(O)O.O=P(O)(O)O (stereo not drawn) [PRIMAQUINE PHOSPHATE]', 'Bacterial Biotransformation', 'Compound NOT metabolized'),
  ('c1ccc2[nH]c(-c3cscn3)nc2c1', 'Bacterial Biotransformation', 'Compound NOT metabolized'),
  ('CC#C[C@]1(O)CC[C@H]2[C@@H]3CCC4=CC(=O)CCC4=C3[C@@H](c3ccc(N(C)C)cc3)C[C@@]21C', 'Bacterial Biotransformation', 'Compound NOT metabolized'),
  ('Cc1cc2c(s1)Nc1ccccc1N=C2N1CCN(C)CC1', 'Bacterial Biotransformation', 'Compound NOT metabolized'),
  ('C[C@]12C=CC(=O)C=C1CC[C@@H]1[C@@H]2C(=O)C[C@@]2(C)[C@H]1CC[C@]2(O)C(=O)CO', 'Bacterial Biotransformation', 'Compound metabolized');

Looking up CCN(C)C(=O)Oc1cccc([C@H](C)N(C)C)c1.O=C(O)C(O)C(O)C(=O)O [RIVASTIGMINE TARTRATE] , I found its Bacterial Biotransformation recorded as Compound NOT metabolized

Looking up C[C@@H](c1ncncc1F)[C@](O)(Cn1cncn1)c1ccc(F)cc1F , I found its Bacterial Biotransformation recorded as Compound metabolized

Looking up O=C(O)CCC(=O)O.O=C(O[C@H]1CN2CCC1CC2)N1CCc2ccccc2[C@@H]1c1ccccc1 [SOLIFENACIN SUCCINATE] , I found its Bacterial Biotransformation recorded as Compound metabolized

* * *

- assay: The drug is tested on WLS-090 corresponding to human gut metagenome with ENA study accession number: PRJEB37062 and ENA sample accession number: ERS12561753 for biotransformation under anaerobic condition. The drug concentrations were measured over 9 timepoints collected between 0 and 24 hours of incubation by liquid-chromatography-coupled mass spectrometry (LC–MS)
- condition_info: 2 µM
outcome_measure: Bacterial Biotransformation

INSERT INTO measurements (compound, outcome_measure, result) VALUES
  ('CC(C)(C)NCC(O)c1cc(Cl)c(N)c(Cl)c1 (centres undefined)', 'Bacterial Biotransformation', 'Compound NOT metabolized'),
  ('COc1ccc(CN2CCNCC2)c(OC)c1OC.Cl.Cl [TRIMETAZIDINE DIHYDROCHLORIDE]', 'Bacterial Biotransformation', 'Compound NOT metabolized'),
  ('O=C(CCCN1CCC2(CC1)C(=O)NCN2c1ccccc1)c1ccc(F)cc1', 'Bacterial Biotransformation', 'Compound NOT metabolized');

// data source = ChEMBL document CHEMBL5724914
